TEST_TARGET: UniProt:P00533
Sequence (P00533 whole entry): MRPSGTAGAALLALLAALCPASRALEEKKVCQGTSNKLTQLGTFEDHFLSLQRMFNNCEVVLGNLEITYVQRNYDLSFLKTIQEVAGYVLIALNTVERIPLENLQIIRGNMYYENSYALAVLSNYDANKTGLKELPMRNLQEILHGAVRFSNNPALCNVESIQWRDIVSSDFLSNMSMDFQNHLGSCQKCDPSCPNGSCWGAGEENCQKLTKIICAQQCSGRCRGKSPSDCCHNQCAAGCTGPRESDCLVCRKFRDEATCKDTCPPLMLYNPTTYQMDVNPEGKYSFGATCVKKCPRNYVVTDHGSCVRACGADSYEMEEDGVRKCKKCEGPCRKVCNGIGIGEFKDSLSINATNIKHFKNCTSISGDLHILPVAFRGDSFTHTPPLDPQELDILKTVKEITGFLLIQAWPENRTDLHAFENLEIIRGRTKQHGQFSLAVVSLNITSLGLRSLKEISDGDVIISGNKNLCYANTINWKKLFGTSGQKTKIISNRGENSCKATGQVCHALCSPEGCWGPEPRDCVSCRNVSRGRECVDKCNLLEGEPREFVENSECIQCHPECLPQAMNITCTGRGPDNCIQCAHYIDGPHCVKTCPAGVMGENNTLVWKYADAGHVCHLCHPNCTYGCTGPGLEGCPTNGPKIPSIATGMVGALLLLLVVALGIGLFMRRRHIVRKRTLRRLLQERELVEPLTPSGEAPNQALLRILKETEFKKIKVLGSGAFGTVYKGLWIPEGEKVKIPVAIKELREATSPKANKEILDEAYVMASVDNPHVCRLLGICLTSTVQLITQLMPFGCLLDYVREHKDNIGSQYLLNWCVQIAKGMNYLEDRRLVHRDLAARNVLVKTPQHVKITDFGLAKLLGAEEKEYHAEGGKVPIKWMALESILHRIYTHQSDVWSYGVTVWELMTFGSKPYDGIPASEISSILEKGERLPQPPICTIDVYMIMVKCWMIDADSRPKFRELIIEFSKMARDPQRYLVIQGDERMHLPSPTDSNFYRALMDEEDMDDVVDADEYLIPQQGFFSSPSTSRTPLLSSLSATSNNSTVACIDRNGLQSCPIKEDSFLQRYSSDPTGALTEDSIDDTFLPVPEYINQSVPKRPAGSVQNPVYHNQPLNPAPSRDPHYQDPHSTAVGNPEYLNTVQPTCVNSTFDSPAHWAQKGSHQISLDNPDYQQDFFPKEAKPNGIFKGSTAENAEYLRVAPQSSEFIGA
MEASUREMENT_LABEL: IC50 (nM)

Some entries whose results are on file:
{"SMILES_REPR": "C#Cc1cccc(Nc2ncnc3cc(O[C@H]4CCOC4)c(NC(=O)/C=C/CNC4CC4)cc23)c1", "IC50 / nM": 5.6}
{"SMILES_REPR": "COCCOc1cc2ncnc(Nc3ccc(F)c(Cl)c3)c2cc1NC(=O)/C=C/CN1CC[S+]([O-])CC1", "IC50 / nM": 357}
{"SMILES_REPR": "C#Cc1cccc(Nc2ncnc3cc(O[C@H]4CCOC4)c(NC(=O)/C=C/CNC(C)C)cc23)c1", "IC50 / nM": 6.4}
{"SMILES_REPR": "CN(C)C/C=C/C(=O)Nc1cc2c(Nc3ccc(OCc4cccc(F)c4)c(Cl)c3)ncnc2cc1O[C@H]1CCOC1", "IC50 / nM": 510}
{"SMILES_REPR": "COCCOc1cc2ncnc(Nc3ccc(F)c(Cl)c3)c2cc1NC(=O)/C=C/CN1CCCCC1", "IC50 / nM": 2.1}

A. CN(C)C/C=C/C(=O)Nc1cc2c(Nc3ccc(F)c(C#N)c3)ncnc2cc1O[C@H]1CCOC1
B. O=C(/C=C/CNC1CC1)Nc1cc2c(Nc3ccc(F)c(Cl)c3)ncnc2cc1O[C@H]1CCOC1
C. O=C(/C=C/CNC1CC1)Nc1cc2c(Nc3ccc(F)c(Cl)c3)ncnc2cc1OC(F)F
Challenge: Please list these molecules in decreasing order of IC50. The reply should contain the labels ordered as requested.
Response given: A, C, B
(A: 147 nM, C: 9.6 nM, B: 6.5 nM)

###

PROTOCOL_DETAILS: AUC (0 to 24 hrs) in Sprague-Dawley rat at 1 mg/kg, iv by LC/MS/MS method
Format: ADME, organism-based
Parameters: time < 24 hr, dose 1 mg/kg, route intravenous
STATED_CONDITIONS: in vivo
MEASUREMENT_LABEL: AUC(0-t) at 24 h (ng·h/mL)

I. C#Cc1cccc(Nc2ncnc3cc(O[C@H]4CCOC4)c(NC(=O)/C=C/CNC4CC4)cc23)c1
II. CC(C)NC/C=C/C(=O)Nc1cc2c(Nc3ccc(F)c(Cl)c3)ncnc2cc1O[C@H]1CCOC1
Challenge: Endpoint returns whichever of I and II has the numerically higher AUC(0-t) at 24 h. Please reply using the label of the selected record.
Response given: I

I. C#Cc1cccc(Nc2ncnc3cc(O[C@H]4CCOC4)c(NC(=O)/C=C/CNC(C)C)cc23)c1
II. O=C(/C=C/CNC1CC1)Nc1cc2c(Nc3ccc(F)c(Cl)c3)ncnc2cc1O[C@H]1CCOC1
Challenge: Could you tell me which of I and II has the lower AUC(0-t) at 24 h reading? Field: selected label. Fill in the label of the entry you choose.
Response given: I
(I: 92.6 ng·h/mL, II: 660 ng·h/mL)

###

PROTOCOL_DETAILS: Toxicity in NCI-H1975 xenografted BALB/c mouse assessed as induction of mouse mortality at 20 mg/kg po, qd for 7 days
Assay type: organism-based
STATED_CONDITIONS: in vivo
MEASUREMENT_LABEL: mortality at 168 h

GET /value?item= C#Cc1cccc(Nc2ncnc3cc(OCC)c(NC(=O)/C=C/CN(C)C4CC4)cc23)c1 &field=mortality at 168 h returns > 50%

###

PROTOCOL_DETAILS: Clearance in Sprague-Dawley rat at 1 mg/kg, iv incubated for 24 hrs by LC/MS/MS method
Format: ADME, organism-based
STATED_CONDITIONS: in vivo
MEASUREMENT_LABEL: clearance (mL/min/kg)

Solved cases below.
{"SMILES_REPR": "C#Cc1cccc(Nc2ncnc3cc(O[C@H]4CCOC4)c(NC(=O)/C=C/CNC4CC4)cc23)c1", "MEASUREMENT_LABEL": "clearance", "RECORDED_NUMBER": 50}
{"SMILES_REPR": "C#Cc1cccc(Nc2ncnc3cc(O[C@H]4CCOC4)c(NC(=O)/C=C/CNC(C)C)cc23)c1", "MEASUREMENT_LABEL": "clearance", "RECORDED_NUMBER": 170}
{"SMILES_REPR": "CN(C)C/C=C/C(=O)Nc1cc2c(Nc3ccc(F)c(Cl)c3)ncnc2cc1O[C@H]1CCOC1", "MEASUREMENT_LABEL": "clearance", "RECORDED_NUMBER": 54.2}

I. CC(C)NC/C=C/C(=O)Nc1cc2c(Nc3ccc(F)c(Cl)c3)ncnc2cc1O[C@H]1CCOC1
II. O=C(/C=C/CNC1CC1)Nc1cc2c(Nc3ccc(F)c(Cl)c3)ncnc2cc1O[C@H]1CCOC1
Challenge: Lower clearance: I or II ? Refer to your chosen item by its label in the answer.
Response given: II

###

PROTOCOL_DETAILS: Mean residence time in Sprague-Dawley rat at 1 mg/kg, iv incubated for 24 hrs by LC/MS/MS method
Assay type: ADME, organism-based
STATED_CONDITIONS: in vivo
MEASUREMENT_LABEL: MRT (h)

Example entries begin here.
{"COMPOUND": "C#Cc1cccc(Nc2ncnc3cc(O[C@H]4CCOC4)c(NC(=O)/C=C/CNC4CC4)cc23)c1", "UNIT_TAG": "h", "MRT": 1.7}
{"COMPOUND": "CN(C)C/C=C/C(=O)Nc1cc2c(Nc3ccc(F)c(Cl)c3)ncnc2cc1O[C@H]1CCOC1 [AFATINIB]", "UNIT_TAG": "h", "MRT": 10.6}

I. C#Cc1cccc(Nc2ncnc3cc(O[C@H]4CCOC4)c(NC(=O)/C=C/CNC(C)C)cc23)c1
II. O=C(/C=C/CNC1CC1)Nc1cc2c(Nc3ccc(F)c(Cl)c3)ncnc2cc1O[C@H]1CCOC1
III. CC(C)NC/C=C/C(=O)Nc1cc2c(Nc3ccc(F)c(Cl)c3)ncnc2cc1O[C@H]1CCOC1
Challenge: Would you mind ranking these compounds by ascending MRT? Returns: the labels listed in the requested order.
Response given: I, II, III
(I: 2.6 h, II: 3.88 h, III: 8.8 h)

###

PROTOCOL_DETAILS: Toxicity in NCI-H1975 xenografted BALB/c mouse assessed as induction of mouse mortality at 4 mg/kg po, qd for 9 days
Assay type: organism-based
STATED_CONDITIONS: in vivo
MEASUREMENT_LABEL: mortality at 216 h

Sample CCOc1cc2ncnc(Nc3ccc(F)c(Cl)c3)c2cc1NC(=O)/C=C/CNC1CC1 ; mortality at 216 h observed: > 50%

###

PROTOCOL_DETAILS: Bioavailability in Sprague-Dawley rat at 1 mg/kg, iv incubated for 24 hrs by LC/MS/MS method
Assay type: ADME, organism-based
STATED_CONDITIONS: in vivo
MEASUREMENT_LABEL: bioavailability (%)

{"SMILES_REPR": "CN(C)C/C=C/C(=O)Nc1cc2c(Nc3ccc(F)c(Cl)c3)ncnc2cc1O[C@H]1CCOC1", "bioavailability [%]": 62.3}

I. O=C(/C=C/CNC1CC1)Nc1cc2c(Nc3ccc(F)c(Cl)c3)ncnc2cc1O[C@H]1CCOC1
II. C#Cc1cccc(Nc2ncnc3cc(O[C@H]4CCOC4)c(NC(=O)/C=C/CNC4CC4)cc23)c1
Challenge: Which has the smaller recorded bioavailability, I or II ? Bench note: the answer is the label of the chosen record.
Response given: II

###

PROTOCOL_DETAILS: AUC (0 to infinity) in Sprague-Dawley rat at 1 mg/kg, iv by LC/MS/MS method
Type: ADME, organism-based
Parameters: dose 1 mg/kg, time infinity, route intravenous
STATED_CONDITIONS: in vivo
MEASUREMENT_LABEL: AUC(0-inf) (ng·h/mL)

Some molecules with known AUC(0-inf) results, for comparison:
{"SMILES_REPR": "CC(C)NC/C=C/C(=O)Nc1cc2c(Nc3ccc(F)c(Cl)c3)ncnc2cc1O[C@H]1CCOC1", "UNIT_TAG": "ng·h/mL", "AUC(0-inf)": 197}
{"SMILES_REPR": "C#Cc1cccc(Nc2ncnc3cc(O[C@H]4CCOC4)c(NC(=O)/C=C/CNC4CC4)cc23)c1", "UNIT_TAG": "ng·h/mL", "AUC(0-inf)": 480}
{"SMILES_REPR": "CN(C)C/C=C/C(=O)Nc1cc2c(Nc3ccc(F)c(Cl)c3)ncnc2cc1O[C@H]1CCOC1", "UNIT_TAG": "ng·h/mL", "AUC(0-inf)": 324}

P. O=C(/C=C/CNC1CC1)Nc1cc2c(Nc3ccc(F)c(Cl)c3)ncnc2cc1O[C@H]1CCOC1
Q. C#Cc1cccc(Nc2ncnc3cc(O[C@H]4CCOC4)c(NC(=O)/C=C/CNC(C)C)cc23)c1
Challenge: Between P and Q , whose measured AUC(0-inf) reads higher? Your answer should be the label of the entry you select.
Response given: P
